- study system: Tyrosine-protein kinase JAK2 (Homo sapiens, UniProt O60674)
- Sequence (O60674 whole entry): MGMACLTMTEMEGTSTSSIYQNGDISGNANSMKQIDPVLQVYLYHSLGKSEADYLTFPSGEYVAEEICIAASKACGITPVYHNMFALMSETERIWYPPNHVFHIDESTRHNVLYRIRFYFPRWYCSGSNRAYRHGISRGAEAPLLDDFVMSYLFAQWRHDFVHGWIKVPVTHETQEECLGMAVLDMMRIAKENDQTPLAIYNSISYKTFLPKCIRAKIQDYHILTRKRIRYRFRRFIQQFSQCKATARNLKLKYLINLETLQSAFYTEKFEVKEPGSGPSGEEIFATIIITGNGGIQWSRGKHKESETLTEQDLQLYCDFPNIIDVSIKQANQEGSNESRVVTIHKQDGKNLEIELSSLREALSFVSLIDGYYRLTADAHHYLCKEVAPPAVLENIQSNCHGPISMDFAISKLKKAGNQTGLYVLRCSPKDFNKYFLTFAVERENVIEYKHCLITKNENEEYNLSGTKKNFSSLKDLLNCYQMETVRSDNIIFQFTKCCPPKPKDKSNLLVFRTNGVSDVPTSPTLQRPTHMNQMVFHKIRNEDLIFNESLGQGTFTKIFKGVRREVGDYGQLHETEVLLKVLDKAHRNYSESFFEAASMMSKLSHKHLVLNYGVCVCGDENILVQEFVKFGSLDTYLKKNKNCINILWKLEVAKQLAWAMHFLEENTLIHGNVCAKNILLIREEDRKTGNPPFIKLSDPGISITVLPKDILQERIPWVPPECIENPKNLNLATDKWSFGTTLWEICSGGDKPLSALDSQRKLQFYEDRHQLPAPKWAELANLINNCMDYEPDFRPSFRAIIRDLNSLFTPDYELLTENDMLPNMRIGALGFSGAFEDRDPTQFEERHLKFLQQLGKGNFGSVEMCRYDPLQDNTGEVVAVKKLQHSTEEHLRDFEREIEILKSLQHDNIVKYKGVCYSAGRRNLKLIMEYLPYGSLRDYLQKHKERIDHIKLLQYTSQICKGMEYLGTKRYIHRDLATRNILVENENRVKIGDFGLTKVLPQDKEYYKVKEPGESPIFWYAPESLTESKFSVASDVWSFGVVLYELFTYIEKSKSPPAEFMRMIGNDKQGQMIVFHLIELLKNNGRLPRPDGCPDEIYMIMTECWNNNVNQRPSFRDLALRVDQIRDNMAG
pIC50: −log10 of the molar value.
readout type: pIC50

The examples below pair each entry with its known result.
>>> df
                                smiles_text  readout_type  result
0  Nc1nc(Nc2cccc(S(N)(=O)=O)c2)nn1C(=O)c1c(F)cccc1F         pIC50    5.60
1  COC(=O)c1ccc(Nc2nc(N)n(C(=O)c3c(F)cccc3F)n2)cc1         pIC50  < 5.00
2  CCOC(=O)c1cccc(Nc2nc(N)n(C(=O)c3c(F)cccc3F)n2)c1         pIC50  < 5.00

Given `CCOC(=O)c1cccc(Nc2nc(N)n(C(=O)c3ccccc3F)n2)c1` , state its recorded pIC50.
< 5.00
